The reported numbers originate from patent US20030105278A1.

# Study System: human MCH receptor (membranes from a stable CHO or HEK-293 cell line) (human) (UniProt Q99705)
# Sequence (Q99705 whole entry): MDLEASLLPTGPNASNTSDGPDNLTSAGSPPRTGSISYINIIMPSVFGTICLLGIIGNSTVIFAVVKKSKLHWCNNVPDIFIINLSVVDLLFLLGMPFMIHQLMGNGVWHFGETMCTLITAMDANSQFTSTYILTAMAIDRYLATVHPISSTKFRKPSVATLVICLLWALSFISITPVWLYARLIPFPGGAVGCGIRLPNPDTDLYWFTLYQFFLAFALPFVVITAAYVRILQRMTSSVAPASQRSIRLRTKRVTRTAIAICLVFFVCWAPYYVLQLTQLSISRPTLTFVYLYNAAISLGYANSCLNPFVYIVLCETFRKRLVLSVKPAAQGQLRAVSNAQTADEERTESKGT
# Assay Explanation: competition vs [125I]-human MCH (Phe13,Tyr19); human MCH receptor cell membranes (Example 3)
Bridges are numbered along the chain shown (N, C = ends). [ ]: non-standard residue; d: D form. Ava = NCCCCC(=O)O
Reported Endpoint: pIC50
# pIC50 is unitless: minus log10 of the molar concentration; print number only

Per the record, Ac-RCM[Ava][Ava]RVY[Ava][Ava]C-NH2 (disulfide 2-11; not fully specified) [MCH analog SEQ. ID. NO. 76 (Ava^9,10,Ava^14,15)] has pIC50 of 7.30
